System: L132
Assay: Cytotoxicity assay for tumor cells, lung L132
Type: cell-based
Settings: concentration causing 50% cytotoxicity
Decision: Lung L132 (ED50) >= 3 µg/mL yields True, all other cases yield False.

Known results for compounds:
Lookup: Determine whether this compound has Lung L132 (ED50) no lower than 3 µg/mL: CC(C)C1CCC2(C(=O)O)CCC3(C)C(CCC4C5(C)CCC(N=Cc6ccc(F)cc6F)C(C)(C)C5CCC43C)C12 (centres unmarked) [MJ1065-RS]
Found: True

Lookup: // next record C=C(C)C1CCC2(C(=O)O)CCC3(C)C(CCC4C5(C)CCC(OC(=O)c6ccc(CCCCC)cc6)C(C)(C)C5CCC43C)C12 (centres unmarked) [MJ1104-RS]
Found: True

Lookup: // next record CC(C)C1CCC2(C(=O)O)CCC3(C)C(CCC4C5(C)CCC(OC(=O)c6ccc(F)cc6F)C(C)(C)C5CCC43C)C12 (centres unmarked) [MJ937-RS]
Found: False

Now consider the entry below.
Lookup: Determine whether this compound has Lung L132 (ED50) no lower than 3 µg/mL: C=C(C)C1CCC2(C(=O)O)CCC3(C)C(CCC4C5(C)CCC(OC(=O)c6cccc(C(F)(F)F)c6)C(C)(C)C5CCC43C)C12 (centres unmarked) [MJ939-RS]
Found: False
